These measurements were taken from the supplement of paper PMC10567573.

B1: DLC1 (parent)
chain: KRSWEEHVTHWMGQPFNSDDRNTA

variants of: B1; test: protein stability index of a GFP-peptide fusion (GPS, HEK-293T) (PSI 1-6); higher = more stable; details: c terminus: a fixed tail appended;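 further: lentivirally expressed fusions sorted by FACS into six bins by GFP to DsRed ratio, PSI derived from sequencing read proportions per bin multiplied by bin number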
Assign 1 whenever protein stability index does not fall below 3; assign 0 whenever it does.

sequence.text	category.label
KRSWEAHVTHWMGQPFNSDDRNTA [E6A]	0
KRSWEEHVTHVMGQPFNSDDRNTA [W11V]	1
KRSWQEHVTHWMGQPFNSDDRNTA [E5Q]	1
KRSWEEHSTHWMGQPFNSDDRNTA [V8S]	1
KQSWEEHVTHWMGQPFNSDDRNTA [R2Q]	1

query: Can KRSWEEHVTHWMGQPFNSHDRNTA [D19H] be said to have protein stability index at or above 3?
result: 0

query: Would you say KRSWEEHVTHWMGQPFNSDDRNTY [A24Y] shows protein stability index at minimum 3?
result: 0

query: Can KRSWETHVTHWMGQPFNSDDRNTA [E6T] be said to have protein stability index at or above 3?
result: 1

query: # check: protein stability index of KRSWEEHVTHWMGQPFESDDRNTA [N17E] is greater than or equal to 3
result: 0

query: Could you verify whether the entry KRSWEEHVTHWMGQPFNSDDRTTA [N22T] shows protein stability index of no less than 3?
result: 0

query: I'd appreciate it if you could say whether KRSWEEHVTHWPGQPFNSDDRNTA [M12P] has protein stability index at least equal to 3.
result: 1

query: Can KRSWEEHVTHWMGQPFNSDDRNTH [A24H] be said to have protein stability index at or above 3?
result: 0

query: Decide: protein stability index of KRSWEEHVTHWMGQPWNSDDRNTA [F16W] >= 3?
result: 0

query: Assess whether reported protein stability index for KRSWEEHVTHWMGYPFNSDDRNTA [Q14Y] sits at 3 or higher.
result: 0

query: Assess whether reported protein stability index for KRSWEKHVTHWMGQPFNSDDRNTA [E6K] sits at 3 or higher.
result: 1

query: Check this variant for protein stability index at or above 3: KRSWEEHVNHWMGQPFNSDDRNTA [T9N]
result: 1

query: Textbook exercise: given the entry KRSWEEHVTHWMGQPFNSKDRNTA [D19K] , state whether its protein stability index is greater than or equal to 3.
result: 0

query: # bool: protein stability index of KFSWEEHVTHWMGQPFNSDDRNTA [R2F] >= 3
result: 1

query: Check the entry KRSWEEHVTHWMGQPFNSDDRNEA [T23E] : does protein stability index equal or exceed 3?
result: 0
